Reference source: ChEMBL document CHEMBL3779795

Kindly supply the reported pIC50 values for the records listed here.
The meaning of pIC50 here: minus log10 of the concentration in molar units.

// query Lab request: please report pIC50 under test system UniProtKB O42713 for O=C(O)CSc1nnc(NC(=S)Nc2cccc(Cl)c2)s1
Sequence (O42713 whole entry): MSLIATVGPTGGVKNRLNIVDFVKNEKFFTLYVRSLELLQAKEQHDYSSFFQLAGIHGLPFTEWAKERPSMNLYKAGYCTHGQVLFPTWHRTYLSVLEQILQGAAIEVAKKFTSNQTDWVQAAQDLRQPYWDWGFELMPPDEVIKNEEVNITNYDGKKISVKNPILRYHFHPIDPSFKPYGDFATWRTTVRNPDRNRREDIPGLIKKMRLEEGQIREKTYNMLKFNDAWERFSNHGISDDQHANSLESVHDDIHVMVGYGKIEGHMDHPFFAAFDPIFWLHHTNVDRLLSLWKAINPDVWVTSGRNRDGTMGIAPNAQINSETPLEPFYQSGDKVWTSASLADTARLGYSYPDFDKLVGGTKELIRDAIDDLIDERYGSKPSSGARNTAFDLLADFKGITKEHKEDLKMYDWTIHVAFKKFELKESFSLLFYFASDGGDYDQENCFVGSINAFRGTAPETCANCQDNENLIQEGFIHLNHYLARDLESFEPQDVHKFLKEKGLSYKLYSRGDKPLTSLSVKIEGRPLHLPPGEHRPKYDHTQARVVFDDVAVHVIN
// result 4.22

// query Lab request: please report pIC50 under test system UniProtKB O42713 for O=C(O)CSc1nnc(NC(=S)Nc2ccccc2)s1
// result 4.56

// query Lab request: please report pIC50 under test system UniProtKB O42713 for O=C(O)CSc1nnc(NC(=S)Nc2ccc(F)c(F)c2)s1
// result 4.69

// query Lab request: please report pIC50 under test system UniProtKB O42713 for O=C(O)CSc1nnc(NC(=S)Nc2cccc(F)c2)s1
// result 4.50

// query Lab request: please report pIC50 under test system UniProtKB O42713 for Cc1ccc(NC(=S)Nc2nnc(SCC(=O)O)s2)cc1
// result 4.26
